- target-of-assay: 5-hydroxytryptamine receptor 6 (Homo sapiens)
- Sequence (P50406 whole entry): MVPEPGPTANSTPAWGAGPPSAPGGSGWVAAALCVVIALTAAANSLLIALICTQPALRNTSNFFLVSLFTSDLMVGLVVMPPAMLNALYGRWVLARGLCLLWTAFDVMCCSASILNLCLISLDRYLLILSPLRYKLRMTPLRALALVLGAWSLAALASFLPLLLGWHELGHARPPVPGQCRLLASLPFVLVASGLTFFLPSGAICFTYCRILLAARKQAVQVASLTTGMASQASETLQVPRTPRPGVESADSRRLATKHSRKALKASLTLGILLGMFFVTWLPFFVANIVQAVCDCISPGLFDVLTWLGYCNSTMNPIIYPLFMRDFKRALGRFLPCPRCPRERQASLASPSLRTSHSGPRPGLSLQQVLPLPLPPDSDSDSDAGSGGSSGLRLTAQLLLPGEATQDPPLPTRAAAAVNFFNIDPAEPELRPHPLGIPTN
Rule: measured Ki below 30 nM gets rule met; anything equal to or greater than 30 nM gets rule not met.

Check out these entries, answers already filled in.
>>> category("CCC(Oc1cc(F)ccc1Cl)c1nc(N)nc(N2CCN(C)CC2)n1 (stereo unspecified)")
"rule met"
>>> category("CCC(Oc1cccc(Cl)c1F)c1nc(N)nc(N2CCN(C)CC2)n1 (stereo unspecified)")
"rule met"
>>> category("CC(Oc1cc(C(F)(F)F)ccc1C(F)(F)F)c1nc(N)nc(N2CCN(C)CC2)n1 (stereo unspecified)")
"rule not met"
>>> category("CC(Oc1cccc(Cl)c1F)c1nc(N)nc(N2CCN(C)CC2)n1 (stereo unspecified)")
"rule not met"

Now take the following molecule into account.
Is the reported Ki for CCCCC(Oc1cc(Cl)cc(Cl)c1)c1nc(Nc2ccncc2)nc(N2CCN(C)CC2)n1 (stereo unspecified) strictly below 30 nM? rule not met
